// reported Scratch wound closure at 5 μM, % per item
# Tested on: 3T3 mouse fibroblasts
# experimentalProtocol: Scratch wound closure
# Format: cell-based
# measurementParameters: 5 μM, 12 h incubation, mean ± SEM

{"compound": "CC[C@@H](C(C)C)[C@H](O)[C@@H](O)[C@@H](C)[C@H]1CC[C@H]2[C@@H]3CC(=O)N[C@H]4C[C@H](O)[C@H](O)C[C@]4(C)[C@H]3CC[C@]12C [Compound 6]", "unitAbbrev": "%", "Scratch wound closure at 5 μM, %": 30.5}
{"compound": "CC[C@@H](C(C)C)[C@H](O)[C@@H](O)[C@@H](C)[C@H]1CC[C@H]2[C@@H]3CNC(=O)[C@H]4C[C@H](O)[C@H](O)C[C@]4(C)[C@H]3CC[C@]12C [Compound 5]", "unitAbbrev": "%", "Scratch wound closure at 5 μM, %": 13.0}
{"compound": "CC(C)[C@@H](C)[C@@H](O)[C@H](O)[C@@H](C)[C@H]1CC[C@H]2[C@@H]3COC(=O)[C@H]4C[C@H](O)[C@H](O)C[C@]4(C)[C@H]3CC[C@]12C [Compound 9]", "unitAbbrev": "%", "Scratch wound closure at 5 μM, %": 8.1}
{"compound": "CC[C@@H](C(C)C)[C@H](O)[C@@H](O)[C@@H](C)[C@H]1CC[C@H]2[C@@H]3CC(=O)[C@H]4C[C@H](O)[C@H](O)C[C@]4(C)[C@H]3CC[C@]12C [Compound 2]", "unitAbbrev": "%", "Scratch wound closure at 5 μM, %": 32.9}
{"compound": "CC[C@@H](C(C)C)[C@H](O)[C@@H](O)[C@@H](C)[C@H]1CC[C@H]2[C@@H]3CC(=O)[C@H]4C[C@H](F)CC[C@]4(C)[C@H]3CC[C@]12C [Compound 4]", "unitAbbrev": "%", "Scratch wound closure at 5 μM, %": 27.7}

Sourced from paper PMC3775972
